Attribute: EC50
biological target: CfEcR-DEF mutant R95H (Choristoneura fumiferana, UniProt O77255, R378H); assay: cell-based
Sequence (O77255 entry or part of it R378H, one chain of several): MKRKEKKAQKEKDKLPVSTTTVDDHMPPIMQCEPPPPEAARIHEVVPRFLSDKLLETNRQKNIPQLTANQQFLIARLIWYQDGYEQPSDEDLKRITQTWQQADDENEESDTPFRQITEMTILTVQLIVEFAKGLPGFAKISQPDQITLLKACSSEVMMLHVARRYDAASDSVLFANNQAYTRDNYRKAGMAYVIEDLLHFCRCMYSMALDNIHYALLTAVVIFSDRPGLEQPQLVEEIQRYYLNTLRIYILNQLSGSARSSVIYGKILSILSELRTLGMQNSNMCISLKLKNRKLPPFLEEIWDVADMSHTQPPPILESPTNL
Hi! Could you send only the number? It should be in µM, unit omitted.

// lookup EC50 for CCc1cccc(C(=O)NN(C(=O)c2cc(C)cc(C)c2)C(C)(C)C)c1C
3.9

CCc1c(OC)cccc1C(=O)NN(C(=O)c1cc(C)cc(C)c1)C(C)(C)C , same question.
1.58

Cc1cc(C)cc(C(=O)N(NC(=O)c2cccc(C(C)C)c2C)C(C)(C)C)c1 , same question.
3.49

* * *

molecular target: CfEcR-DEF mutant L223K (Choristoneura fumiferana, UniProt O77255, L506K); assay: GAL4-driven luciferase reporter assay in NIH3T3 cells
Sequence (P28702 298-449): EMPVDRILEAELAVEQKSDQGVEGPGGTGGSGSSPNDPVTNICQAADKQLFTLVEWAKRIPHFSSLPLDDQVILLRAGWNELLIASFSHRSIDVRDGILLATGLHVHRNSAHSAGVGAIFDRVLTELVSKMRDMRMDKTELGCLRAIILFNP
Sequence (O77255 entry or part of it L506K): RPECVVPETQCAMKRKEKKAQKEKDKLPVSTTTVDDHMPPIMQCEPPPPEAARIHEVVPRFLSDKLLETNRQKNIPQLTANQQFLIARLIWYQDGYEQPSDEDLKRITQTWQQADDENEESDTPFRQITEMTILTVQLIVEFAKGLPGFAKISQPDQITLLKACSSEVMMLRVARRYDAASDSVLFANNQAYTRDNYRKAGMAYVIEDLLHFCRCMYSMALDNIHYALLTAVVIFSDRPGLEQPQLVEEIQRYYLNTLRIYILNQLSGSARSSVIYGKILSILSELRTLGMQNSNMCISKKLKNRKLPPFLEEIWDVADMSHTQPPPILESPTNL
measured.property: EC50
State the result as a value with its unit after it.

• CCCCC(N(NC(=O)c1ccc(CC)cc1)C(=O)c1cc(C)cc(C)c1)C(C)(C)C (centres unmarked) [RG-115840] = 1000 nM

Note: attention shifts to another entry.
// lookup EC50 for CCc1c(OC)cccc1C(=O)NN(C(=O)c1cc(C)cc(C)c1)C(C)(C)C [RG-102240]
3930 nM

* * *

target: CfEcR-DEF mutant A110E (Choristoneura fumiferana, UniProt O77255, A393E); assay: cell-based
Sequence (P28702 299-449, stated change not applied): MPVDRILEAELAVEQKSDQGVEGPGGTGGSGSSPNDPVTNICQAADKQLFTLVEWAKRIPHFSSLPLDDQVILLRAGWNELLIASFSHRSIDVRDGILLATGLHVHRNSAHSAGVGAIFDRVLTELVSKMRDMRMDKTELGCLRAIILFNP
Sequence (O77255 entry or part of it A393E): as the sequence (O77255 entry or part of it L506K) above, with A187E, K300L counted along it
measured.property: EC50 (nM)
Hi! Could you send only the number? It should be in nM, unit omitted.

• Cc1cc(C)cc(C(=O)N(NC(=O)c2cccc(C(C)C)c2C)C(C)(C)C)c1 [RG-102362] = 1020
• CCc1c(OC)cccc1C(=O)NN(C(=O)c1cc(C)cc(C)c1)C(C)(C)C [RG-102240] = 590

Note: attention shifts to another entry.
// lookup EC50 for CCc1cccc(C(=O)NN(C(=O)c2cc(C)cc(C)c2)C(C)(C)C)c1C [RG-101691]
850

* * *

target: CfEcR-DEF mutant M125E (Choristoneura fumiferana, UniProt O77255, M408E); assay: cell-based
Sequence (O77255 entry or part of it M408E, one chain of several): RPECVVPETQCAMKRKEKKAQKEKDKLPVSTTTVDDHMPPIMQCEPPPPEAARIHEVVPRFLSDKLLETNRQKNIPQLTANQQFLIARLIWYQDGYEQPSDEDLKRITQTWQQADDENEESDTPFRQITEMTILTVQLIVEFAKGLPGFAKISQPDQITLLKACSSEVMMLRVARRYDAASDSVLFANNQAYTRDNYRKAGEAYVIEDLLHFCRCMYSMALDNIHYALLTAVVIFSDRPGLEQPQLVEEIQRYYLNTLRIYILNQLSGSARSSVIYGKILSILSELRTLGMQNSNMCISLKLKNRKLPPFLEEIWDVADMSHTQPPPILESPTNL
measured.property: pEC50
When answering, recall that pEC50 equals minus log10 of the concentration in mol/L, and write that number alone.

* CCc1cccc(C(=O)NN(C(=O)c2cc(C)cc(C)c2)C(C)(C)C)c1C [RG-101691] | 6.01

Note: attention shifts to another entry.
Give recorded pEC50 with CfEcR-DEF mutant M125E (Choristoneura fumiferana, UniProt O77255, M408E) for the following compound: Cc1cc(C)cc(C(=O)N(NC(=O)c2cccc(C(C)C)c2C)C(C)(C)C)c1 [RG-102362]
6.08

* * *

molecular target: CfEcR-DEF mutant F48W (Choristoneura fumiferana, UniProt O77255, F331W); assay: cell-based; details: mutant F48W; read-out: EC50
Sequence (P28702 299-449): as the sequence (P28702 299-449, stated change not applied) above
Sequence (O77255 entry or part of it F331W): as the sequence (O77255 entry or part of it L506K) above, with F125W, K300L counted along it
Attribute: EC50

* CC(C)CC[C@@H](O)[C@](C)(O)[C@H]1CC[C@@]2(O)C3=CC(=O)[C@@H]4C[C@@H](O)[C@@H](O)C[C@]4(C)[C@H]3CC[C@]12C | ~10 µM

Note: attention shifts to another entry.
// lookup EC50 for CC(C)(O)CC[C@@H](O)[C@](C)(O)[C@H]1CC[C@@]2(O)C3=CC(=O)[C@@H]4C[C@@H](O)[C@@H](O)C[C@]4(C)[C@H]3CC[C@]12C [20E, 20-hydroxyecdysone]
> 33 µM

* * *

target: CfEcR-DEF mutant I51L (Choristoneura fumiferana, UniProt O77255, I334L); test: cell-based
Sequence (O77255 entry or part of it I334L, one chain of several): as the sequence (O77255 entry or part of it M408E, one chain of several) above, with I128L, E202M counted along it
Attribute: pEC50
When answering, recall that pEC50 equals minus log10 of the concentration in mol/L, and write that number alone.

• CCc1c(OC)cccc1C(=O)NN(C(=O)c1cc(C)cc(C)c1)C(C)(C)C [RG-102240] = 5.49
• Cc1cc(C)cc(C(=O)N(NC(=O)c2cccc(C(C)C)c2C)C(C)(C)C)c1 [RG-102362] = 5.47

// lookup pEC50 for CCc1cccc(C(=O)NN(C(=O)c2cc(C)cc(C)c2)C(C)(C)C)c1C [RG-101691]
5.64

* * *

molecular target: CfEcR-DEF mutant T52P (Choristoneura fumiferana, UniProt O77255, T335P); assay: cell-based
Sequence (O77255 entry or part of it T335P, one chain of several): as the sequence (O77255 entry or part of it M408E, one chain of several) above, with T129P, E202M counted along it
measured.property: EC50

Here are 2 molecules together with their reported answers.
* Cc1cc(C)cc(C(=O)N(NC(=O)c2cccc(C(C)C)c2C)C(C)(C)C)c1 | ~6 µM
* CCc1cccc(C(=O)NN(C(=O)c2cc(C)cc(C)c2)C(C)(C)C)c1C | > 33 µM

Note: attention shifts to another entry.
// lookup EC50 for CCc1c(OC)cccc1C(=O)NN(C(=O)c1cc(C)cc(C)c1)C(C)(C)C
~10 µM

* * *

molecular target: CfEcR-DEF mutant L234M (Choristoneura fumiferana, UniProt O77255, L517M); experiment: cell-based; conditions: mutant L234M; read-out: EC50
Sequence (P28702 299-449): as the sequence (P28702 299-449, stated change not applied) above
Sequence (O77255 entry or part of it L517M): as the sequence (O77255 entry or part of it L506K) above, with K300L, L311M counted along it
Attribute: EC50

* CC(C)CC[C@@H](O)[C@](C)(O)[C@H]1CC[C@@]2(O)C3=CC(=O)[C@@H]4C[C@@H](O)[C@@H](O)C[C@]4(C)[C@H]3CC[C@]12C | > 33 µM

Note: attention shifts to another entry.
// lookup EC50 for CC(C)(O)CC[C@@H](O)[C@](C)(O)[C@H]1CC[C@@]2(O)C3=CC(=O)[C@@H]4C[C@@H](O)[C@@H](O)C[C@]4(C)[C@H]3CC[C@]12C [20E, 20-hydroxyecdysone]
> 33 µM

* * *

Attribute: EC50
target: CfEcR-DEF mutant M92E (Choristoneura fumiferana, UniProt O77255, M375E); assay: cell-based
Sequence (O77255 entry or part of it M375E, one chain of several): as the sequence (O77255 entry or part of it M408E, one chain of several) above, with M169E, E202M counted along it

Here are 2 compounds together with their reported answers.
• Cc1cc(C)cc(C(=O)N(NC(=O)c2cccc(C(C)C)c2C)C(C)(C)C)c1 = > 33 µM
• CCc1cccc(C(=O)NN(C(=O)c2cc(C)cc(C)c2)C(C)(C)C)c1C = ~20 µM

// lookup EC50 for CCc1c(OC)cccc1C(=O)NN(C(=O)c1cc(C)cc(C)c1)C(C)(C)C
~8 µM

* * *

target: CfEcR-DEF mutant A110P (Choristoneura fumiferana, UniProt O77255, A393P); assay: cell-based
Sequence (O77255 entry or part of it A393P): as the sequence (O77255 entry or part of it L506K) above, with A187P, K300L counted along it
Sequence (P28702 299-449, stated change not applied, further chain): as the sequence (P28702 299-449, stated change not applied) above
Attribute: pEC50
When answering, recall that pEC50 equals minus log10 of the concentration in mol/L, and write that number alone.

Here are 2 compounds together with their reported answers.
• CCc1cccc(C(=O)NN(C(=O)c2cc(C)cc(C)c2)C(C)(C)C)c1C [RG-101691] = 6.17
• CCc1c(OC)cccc1C(=O)NN(C(=O)c1cc(C)cc(C)c1)C(C)(C)C [RG-102240] = 6.26

// lookup pEC50 for Cc1cc(C)cc(C(=O)N(NC(=O)c2cccc(C(C)C)c2C)C(C)(C)C)c1 [RG-102362]
6.11

* * *

molecular target: CfEcR-DEF mutant V96S (Choristoneura fumiferana, UniProt O77255, V379S); test: cell-based
Sequence (O77255 entry or part of it V379S, one chain of several): as the sequence (O77255 entry or part of it R378H, one chain of several) above, with H160R, V161S counted along it
measured.property: EC50 (µM)
Hi! Could you send only the number? It should be in µM, unit omitted.

- CCc1c(OC)cccc1C(=O)NN(C(=O)c1cc(C)cc(C)c1)C(C)(C)C: 1.14
- CCc1cccc(C(=O)NN(C(=O)c2cc(C)cc(C)c2)C(C)(C)C)c1C: 0.87

Note: attention shifts to another entry.
// lookup EC50 for Cc1cc(C)cc(C(=O)N(NC(=O)c2cccc(C(C)C)c2C)C(C)(C)C)c1
2.07

* * *

Target: CfEcR-DEF mutant W238E (Choristoneura fumiferana, UniProt O77255, W521E)
Sequence (P28702 299-449): as the sequence (P28702 299-449, stated change not applied) above
Sequence (O77255 entry or part of it W521E): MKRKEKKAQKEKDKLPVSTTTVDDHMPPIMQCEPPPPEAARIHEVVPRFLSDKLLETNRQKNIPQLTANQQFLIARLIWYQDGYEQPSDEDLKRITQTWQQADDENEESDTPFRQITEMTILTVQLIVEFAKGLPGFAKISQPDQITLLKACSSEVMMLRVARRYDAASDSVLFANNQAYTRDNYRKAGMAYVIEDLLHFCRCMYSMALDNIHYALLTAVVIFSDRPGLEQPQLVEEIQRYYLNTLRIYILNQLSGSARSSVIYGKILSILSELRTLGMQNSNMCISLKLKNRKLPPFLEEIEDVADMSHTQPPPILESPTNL
Assay: cell-based
Procedure: This construct was prepared in the same way as in switch 1.1 above except wild-type CfEcR-DEF was replaced with mutant CfEcR-DEF comprising a ligand binding domain comprising a substitution mutation selected from Table 1 below. […] Reporter Assays: Cells were harvested 40 hours after adding ligands. […] Luciferase activity was measured using Dual-Luciferase reporter assay system from Promega Corporation following the manufacturer's instructions. […]
pEC50: −log10 of the molar value.
measured.property: pEC50

Here are 2 compounds together with their reported answers.
* Cc1cc(C)cc(C(=O)N(NC(=O)c2cccc(C(C)C)c2C)C(C)(C)C)c1 | 5.46
* CCc1c(OC)cccc1C(=O)NN(C(=O)c1cc(C)cc(C)c1)C(C)(C)C | ~5.22

// lookup pEC50 for CCc1cccc(C(=O)NN(C(=O)c2cc(C)cc(C)c2)C(C)(C)C)c1C
~5.10

* * *

molecular target: CfEcR-DEF mutant L234M (Choristoneura fumiferana, UniProt O77255, L517M); assay: cell-based
measured.property: pEC50
When answering, recall that pEC50 equals minus log10 of the concentration in mol/L, and write that number alone.

* CCc1cccc(C(=O)NN(C(=O)c2cc(C)cc(C)c2)C(C)(C)C)c1C | 5.75

// lookup pEC50 for CCc1c(OC)cccc1C(=O)NN(C(=O)c1cc(C)cc(C)c1)C(C)(C)C
5.84

Cc1cc(C)cc(C(=O)N(NC(=O)c2cccc(C(C)C)c2C)C(C)(C)C)c1 , same question.
5.69
